- test_protocol: cytotoxicity of HCC827-GR cells treated with or without USP24 inhibitor under various concentrations of Gefitinib
- assay_setup: human
measured_endpoint: viability at 5 μg/mL

smiles=CN1CCN(CCN2c3ccccc3Sc3ccc(C(=O)c4ccccc4)cc32)CC1 measured_endpoint="viability at 5 μg/mL" endpoint_value=80.5%
